pKd for assorted binders
Subject Of Test: T1, PUF4 RNA-binding domain (Saccharomyces cerevisiae, UniProt P25339 537-888)
T1 sequence: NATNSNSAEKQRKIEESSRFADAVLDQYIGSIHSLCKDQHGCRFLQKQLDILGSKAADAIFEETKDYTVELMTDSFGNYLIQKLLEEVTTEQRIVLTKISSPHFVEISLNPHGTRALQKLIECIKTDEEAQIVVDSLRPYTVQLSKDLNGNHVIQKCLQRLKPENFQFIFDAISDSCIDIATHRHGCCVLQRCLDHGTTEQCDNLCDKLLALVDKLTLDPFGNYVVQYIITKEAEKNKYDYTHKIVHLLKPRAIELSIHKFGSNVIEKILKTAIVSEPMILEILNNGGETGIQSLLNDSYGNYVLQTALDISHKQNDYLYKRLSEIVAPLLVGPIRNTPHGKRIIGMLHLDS
Test Name: Mg; RNA-MaP; 20 mM Na-HEPES pH 7.4, 30 mM KOAc, 0.75 mM MgCl2, 0.1% Tween-20, 5% glycerol, 0.1 mg/mL BSA, 2 mM DTT; 25 C; 0.0125-409.6 nM protein
Measurement Conditions: tags: N-His6-TEV cleaved; C-SNAP kept, Cy3B-labelled; label: tethered on chip by stalled RNA polymerase
pKd: −log10 of the molar value.
Experimental Endpoint: pKd

INSERT INTO measurements (binder, experimental_endpoint, numeric_readout) VALUES
  ('UCUCUUCUUGCCUUAUAUAUAUCUCUU (ssRNA) [Ie_S1_P3E.2_K3.1_C3.2_H3.1_[+2CCT]_A3.1_F3.1_T3.2]', 'pKd', 5.82),
  ('Id_ii_S2_P4E.3_K4.2_C4.2_[C-2G]_H4.2_A4.1_F4.1_T4.2_[G10A]_[T11A] (ssRNA) RNA: UUUGAUUAAUAUGAUAUCGUUCUUUCUGUUAUAUAUUAAAUUCUUUCUCGAUAUCAUAUUAAUCUUU', 'pKd', 7.86),
  ('Id_ii_S4_P5E.2_K5.1_C5.2_[C-2T]_[T-1A]_H5.1_A5.1_F5.1_T5.2_[T11A] (ssRNA) RNA: UUUGACAACUGAUCGUUCUUUCUUAUGUAUUAUUAAAUUCUUUCUCGAUCAGUUGUCUUU', 'pKd', 7.97),
  ('UCUCUUUUCUCGUAUUAUUAUCUCUU (ssRNA) [Ie_S1_P5E.1_K5.1_C5.1_H5.1_[+1TCTC]_A5.1_F5.1_T5.1]', 'pKd', 5.91);
